All values here come from PubChem BioAssay (NCI).

system: ACHN renal; experiment: NCI-60 one-dose screen, 48 h; conditions: 10 µM unless noted
About 83,000 compounds went through this panel and 20% of them were active in at least one assay; those are over-represented in the sample as a whole. Active and inactive are the calls of the source. Rule for the calls: active = growth percent below 10; inactive = the rest.
Bench note: report the call from TRUE for active, FALSE for inactive

IN: Could you kindly confirm the outcome this assay logged for "Clc1ccc(-c2cn(-c3ccccc3)c(-c3ccccc3)n2)cc1" ?
OUT: FALSE

IN: Could you kindly confirm the outcome this assay logged for "C=CCOc1cccc(/C=C2\SC(=Nc3ccc(O)cc3)NC2=O)c1" ?
OUT: FALSE

IN: Could you kindly confirm the outcome this assay logged for C=C(C)[C@@H]1CC[C@]2(CN)CC[C@]3(C)[C@H](CC[C@@H]4[C@@]5(C)CCC(N)[C@@](C)(CO)[C@@H]5CC[C@]43C)[C@@H]12 (stereo partly specified) ?
OUT: TRUE

IN: Could you kindly confirm the outcome this assay logged for "N#C/C(=C\c1ccc2c(c1)OCO2)n1nnc2ccccc21" ?
OUT: FALSE

# ---- query compound ----
IN: Could you kindly confirm the outcome this assay logged for "O=C(O)c1ccc(CO)o1" ?
OUT: FALSE

----------
tested on: NCI-H460 lung; experiment: NCI-60 one-dose screen, 48 h (100 = growth as untreated, 0 = no growth, -100 = all killed); details: 10 µM unless noted
About 83,000 compounds went through this panel and 20% of them were active in at least one assay; those are over-represented in the sample as a whole.
measured_endpoint: growth (%)
One number for each entry, in %.

// solved cases for growth follow
Please fill in: growth reported for "Clc1ccc(-c2nc(NCCc3ccccc3)nc3c(NCCc4ccccc4)cnn23)cc1" = 16.3

Please fill in: growth reported for "CC(C)OCCCNCC(=O)Nc1ccc(S(=O)(=O)c2ccc(NC(=O)CNCCCOC(C)C)cc2)cc1" = 94.9

Please fill in: growth reported for "CC1(C)CC(=O)c2c(ccc(C(=O)C[C@H](N)CO)c2N)O1" = 6.79

Please fill in: growth reported for "O=C(NCc1cn(Cc2cccc(Oc3ccccc3)c2)nn1)c1cccnc1NCc1ccc(Cl)cc1" = 17.1

Please fill in: growth reported for "Cc1cc(C)on1" = 116

The following compounds each have a reported value; give each one's growth.
1. COc1cc(CNC(=O)/C=C/C=C/c2ccc3c(c2)OCO3)ccc1OCc1cn(-c2ccc(Cl)c(Cl)c2)nn1
2. Cc1csc(NC(=O)c2sc3nc(-c4cccs4)ccc3c2N)n1
3. O=C(NC1CCOCC1)c1ccc2c(c1)CN(c1ncc(Cc3cccc(-n4cccn4)c3)s1)CC2
4. CCOC(=O)c1cnn2c(-c3ccc(Cl)cc3)nc(NCc3ccccc3)nc12
5. Cc1nc2ccc(C(=O)NCc3cc(C(=O)O)c(C)o3)cc2nc1C

OUT:
1: -57.5; 2: 99.3; 3: 79.9; 4: 78.1; 5: 100

----------
system: HOP-62 NSCLC; experiment: NCI-60 one-dose screen, 48 h (100 = growth as untreated, 0 = no growth, -100 = all killed); conditions: 10 µM unless noted
The panel holds about 83,000 compounds, 20% with a hit somewhere; the sample as a whole holds those more often.
measured_endpoint: growth (%)
Numbers only, in %.

// solved cases for growth follow
Please fill in: growth reported for "Cc1cc(N(CCCNc2ccnc3cc(Cl)ccc23)Cc2ccccn2)nc(N2CCOCC2)n1" = 85.2

Please fill in: growth reported for "O=C(O)c1ccccc1C(=O)Nc1ccc(Cl)cc1" = 107

Please fill in: growth reported for "Cl.Fc1c[c-]c(-c2ccccn2)c(F)c1.[Pt].c1ccc([PH+](c2ccccc2)c2ccccc2[PH+](c2ccccc2)c2ccccc2)cc1" = -62.2

Please fill in: growth reported for "Nc1nc(Nc2ccc(Cl)cc2)nn1S(=O)(=O)c1ccc(-c2ccc(F)cc2)cc1" = 84.3

Please fill in: growth reported for C=C(C)[C@@H]1CC[C@@]2(C(=O)O)CC[C@]3(C)C(CCC4[C@@]5(C)CCC(OS(=O)(=O)c6ccccc6)C(C)(C)C5CC[C@]43C)C12 (stereo partly drawn) = 57.4

Please fill in: growth reported for "Cn1ncc2c(Nc3ccc(Br)cc3)nc(Nc3ccc(Br)cc3)nc21" = 23.8

Please fill in: growth reported for "Cc1csc(NC(=O)c2sc3nc(-c4cccs4)ccc3c2N)n1" = 90.4

Please fill in: growth reported for "C=C1C(=O)O[C@H]2[C@H]1CC/C(COC(=O)/C=C\C(=O)NCc1ccc(Cn3c(=O)sn(-c4ccc(Cl)cc4)c3=O)cc1)=C\CC[C@@]1(C)O[C@@H]21" = -34.7

Please fill in: growth reported for "CC(C)n1nc(C#Cc2cccc3cc(-c4cccc(C(F)(F)F)c4)ncc23)c2c(N)ncnc21" = 59.7

Please fill in: growth reported for "Cc1ccc2c(n1)C(=O)C(Oc1ccc(F)cc1)=CC2=O" = 125

The following molecules each have a reported value; give each one's growth.
1. Cn1cc(Nc2nccc(-c3ccc(N4CCCC4)c(C#N)c3)n2)cn1
2. Oc1ccccc1-c1nc2ccccn2c1NCCN1CCOCC1

OUT:
[25.5, 76.8]

The following molecules each have a reported value; give each one's growth.
1. Nc1c(-c2nc3ccccc3c(=O)[nH]2)nnn1-c1ccc(Cl)cc1
2. C[C@H]1[C@H]2C3=CC[C@@H]4[C@@]5(C)C/C(=C/c6ccncc6)C(=O)C(C)(C)[C@@H]5CC[C@@]4(C)[C@]3(C)CC[C@@]2(C(=O)N2CCN(C)CC2)CC[C@@H]1C
3. COc1ccc(/C(C)=C(\c2ccc(Cl)cc2)c2ccc(OCCCN(C)C)cc2)cc1F

OUT:
[57.2, 74.7, 52.8]
